This section presents compounds with their documented pIC50 values.
Target sequence: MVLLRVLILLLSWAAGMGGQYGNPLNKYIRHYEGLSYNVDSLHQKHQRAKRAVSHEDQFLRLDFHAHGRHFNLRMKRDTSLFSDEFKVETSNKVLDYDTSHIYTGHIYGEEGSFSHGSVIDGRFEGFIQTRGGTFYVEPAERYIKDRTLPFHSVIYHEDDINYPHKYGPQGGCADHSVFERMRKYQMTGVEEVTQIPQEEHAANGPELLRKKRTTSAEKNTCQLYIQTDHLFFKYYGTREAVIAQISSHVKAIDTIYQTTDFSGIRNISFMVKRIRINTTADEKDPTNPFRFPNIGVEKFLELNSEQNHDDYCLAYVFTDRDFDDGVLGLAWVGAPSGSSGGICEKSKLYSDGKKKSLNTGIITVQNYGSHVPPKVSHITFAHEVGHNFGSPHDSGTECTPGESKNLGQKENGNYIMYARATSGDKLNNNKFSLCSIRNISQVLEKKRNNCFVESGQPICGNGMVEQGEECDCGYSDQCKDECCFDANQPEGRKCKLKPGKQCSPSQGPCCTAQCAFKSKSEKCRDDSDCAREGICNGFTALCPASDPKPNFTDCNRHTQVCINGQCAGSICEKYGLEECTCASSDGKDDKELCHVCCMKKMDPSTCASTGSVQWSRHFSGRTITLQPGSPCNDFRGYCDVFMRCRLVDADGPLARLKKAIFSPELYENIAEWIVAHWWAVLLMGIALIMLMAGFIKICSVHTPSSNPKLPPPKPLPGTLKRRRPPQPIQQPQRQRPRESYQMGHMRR
pIC50: −log10 of the molar value.

Consider the reported pIC50 for these compounds:
{"columns": ["COMPOUND", "pIC50"],
 "data": [
  ["COCCOC(=O)N1CCN(S(=O)(=O)c2ccc(Oc3ccc4c(c3)CCCC4)nc2)[C@@H](C(=O)NO)C1 [Entry 64]", "> 7.30"],
  ["O=C(NO)[C@H]1CN(C(=O)OCCN2CCCCC2)CCN1S(=O)(=O)c1cc(F)c(Oc2ccc(Cl)cc2)c(F)c1 [Entry 27]", "> 7.30"],
  ["O=C(NO)[C@H]1CN(C(=O)C(=O)N2CCOCC2)CCN1S(=O)(=O)c1cc(F)c(Oc2ccc(Cl)cc2)c(F)c1 [Entry 31]", "> 7.30"],
  ["COCCOC(=O)N1CCN(S(=O)(=O)c2ccc(Oc3ccc(F)cc3)nc2)[C@@H](C(=O)NO)C1 [Entry 65]", "6.00 to 7.30"],
  ["CN(C)S(=O)(=O)N1CCN(S(=O)(=O)c2cc(F)c(Oc3ccc(Cl)cc3)c(F)c2)[C@@H](C(=O)NO)C1 [Entry 36]", "> 7.30"]
]}

**Q:** Look at this compound and give its reported pIC50. O=C(NO)[C@H]1CN(S(=O)(=O)Cc2ccncc2)CCN1S(=O)(=O)c1cc(F)c(Oc2ccc(Cl)cc2)c(F)c1 [Entry 34]
**A:** > 7.30

**Q:** Same for CN(C)c1ccc2ccc(S(=O)(=O)N3CCN(S(=O)(=O)c4cc(F)c(Oc5ccc(Cl)cc5)c(F)c4)[C@@H](C(=O)NO)C3)cc2c1 [Entry 50]
**A:** 4.70 to 6.00

**Q:** Same for O=C(NO)[C@H]1CNCCN1S(=O)(=O)c1cc(F)c(Oc2ccc(F)cc2)c(F)c1 [Entry 11]
**A:** 6.00 to 7.30

**Q:** Same for COCCN1CCN(S(=O)(=O)c2cc(F)c(Oc3ccc(Cl)cc3)c(F)c2)[C@@H](C(=O)NO)C1 [Entry 29]
**A:** > 7.30

**Q:** Same for O=C(NO)[C@H]1CN(C(=O)N2CCOCC2)CCN1S(=O)(=O)c1ccc(Oc2ccc(F)cc2)c(F)c1 [Entry 8]
**A:** > 7.30

**Q:** Same for CC(C)(C)OC(=O)N1CCN(S(=O)(=O)c2cc(F)c(Oc3ccc(F)cc3)c(F)c2)[C@@H](C(=O)NO)C1 [Entry 9]
**A:** > 7.30

**Q:** Same for O=C(NO)[C@H]1CN(C(=O)Cc2ccncc2)CCN1S(=O)(=O)c1cc(F)c(Oc2ccc(Cl)cc2)c(F)c1 [Entry 52]
**A:** > 7.30

**Q:** Same for CN1CCN(C(=O)N2CCN(S(=O)(=O)c3cc(F)c(Oc4ccc(Cl)cc4)c(F)c3)[C@@H](C(=O)NO)C2)CC1 [Entry 16]
**A:** > 7.30

**Q:** Same for COCCOC(=O)N1CCN(S(=O)(=O)c2ccc(Oc3ccc(F)cc3)cc2)[C@@H](C(=O)NO)C1 [Entry 1]
**A:** > 7.30

**Q:** Same for CCOC(=O)N1CCN(CC(=O)N2CCN(S(=O)(=O)c3cc(F)c(Oc4ccc(Cl)cc4)c(F)c3)[C@@H](C(=O)NO)C2)CC1 [Entry 23]
**A:** > 7.30
